Assignment: determine reported MIC for the given compounds.
- Tested on: M. avium
- assay.explanation: MIC by resazurin microtiter assay (REMA), M. avium strains
- details: Mycobacterium avium
Put down the number, then write its unit next to it.

(Q) Entry under review: C/C=C1\NC(=O)[C@H]([C@@H](C)O)NC(=O)c2csc(n2)-c2ccc(-c3nc(-c4nc(C(=O)NC5(C(=O)NCCN6CCN(C[C@@H](O)CO)CC6)CC5)cs4)cs3)nc2-c2csc(n2)[C@H]([C@@H](C)O)NC(=O)c2csc(n2)[C@H](C(C)C)NC(=O)c2csc1n2 [AJ-206] . Reported MIC?
(A) 0.5 µg/mL

(Q) Entry under review: C/C=C(\NC(=O)c1csc(-c2csc(-c3ccc4c(n3)-c3csc(n3)[C@H]([C@@H](C)O)NC(=O)c3csc(n3)[C@H](C(C)C)NC(=O)c3csc(n3)/C(=C/C)NC(=O)[C@H]([C@@H](C)O)NC(=O)c3csc-4n3)n2)n1)C(=O)NCC(C)=O [MP2, micrococcin P2, reference compound] . Reported MIC?
(A) 0.125 µg/mL

(Q) Entry under review: C/C=C1\NC(=O)[C@H]([C@@H](C)O)NC(=O)c2csc(n2)-c2ccc(-c3nc(-c4nc(C(=O)NC5(C(=O)NCCCN6CCOCC6)CC5)cs4)cs3)nc2-c2csc(n2)[C@H]([C@@H](C)O)NC(=O)c2csc(n2)[C@H](C(C)C)NC(=O)c2csc1n2 [AJ-037] . Reported MIC?
(A) 0.25 µg/mL

(Q) Entry under review: CC[C@H]1OC(=O)[C@H](C)[C@@H](O[C@H]2C[C@@](C)(OC)[C@@H](O)[C@H](C)O2)[C@H](C)[C@@H](O[C@@H]2O[C@H](C)C[C@H](N(C)C)[C@H]2O)[C@](C)(OC)C[C@@H](C)C(=O)[C@H](C)[C@@H](O)[C@]1(C)O [CLR, clarithromycin, reference compound] . Reported MIC?
(A) 0.5 µg/mL

----------
- assay.explanation: Aqueous kinetic solubility
- Type: physicochemical
- details: aqueous buffer, kinetic from dmso stock; free form; deionized water pH 7.4, 1% DMSO
parameter.measured: solubility at 2 h (µg/mL)
Field format: number, assumed µg/mL, no unit text.

(Q) Entry under review: C/C=C1\NC(=O)[C@H]([C@@H](C)O)NC(=O)c2csc(n2)-c2ccc(-c3nc(-c4nc(C(=O)NC5(C(=O)NCCCN6C(=O)CNC6=O)CC5)cs4)cs3)nc2-c2csc(n2)[C@H]([C@@H](C)O)NC(=O)c2csc(n2)[C@H](C(C)C)NC(=O)c2csc1n2 . Reported solubility at 2 h?
(A) 2.98

(Q) Entry under review: C/C=C(\NC(=O)c1csc(-c2csc(-c3ccc4c(n3)-c3csc(n3)[C@H]([C@@H](C)O)NC(=O)c3csc(n3)[C@H](C(C)C)NC(=O)c3csc(n3)/C(=C/C)NC(=O)[C@H]([C@@H](C)O)NC(=O)c3csc-4n3)n2)n1)C(=O)NCC(C)=O [MP2, micrococcin P2, reference compound] . Reported solubility at 2 h?
(A) 0.07

(Q) Entry under review: C/C=C1\NC(=O)[C@H]([C@@H](C)O)NC(=O)c2csc(n2)-c2ccc(-c3nc(-c4nc(C(=O)NC5(C(=O)NCCCN6CCOCC6)CC5)cs4)cs3)nc2-c2csc(n2)[C@H]([C@@H](C)O)NC(=O)c2csc(n2)[C@H](C(C)C)NC(=O)c2csc1n2 . Reported solubility at 2 h?
(A) 103

(Q) Entry under review: C/C=C1\NC(=O)[C@H]([C@@H](C)O)NC(=O)c2csc(n2)-c2ccc(-c3nc(-c4nc(C(=O)NC5(C(=O)NCCN6CCN(C[C@@H](O)CO)CC6)CC5)cs4)cs3)nc2-c2csc(n2)[C@H]([C@@H](C)O)NC(=O)c2csc(n2)[C@H](C(C)C)NC(=O)c2csc1n2 . Reported solubility at 2 h?
(A) 102

----------
- Tested on: macrolide-resistant M. avium
- assay.explanation: MIC by REMA, macrolide-resistant M. avium strains
- details: Mycobacterium avium, M. avium (SMC#1213), 23S rRNA A2058/A2059 T/A
Assignment: determine reported MIC for the given molecules.
Field format: number, assumed µg/mL, no unit text.

(Q) Entry under review: C/C=C1\NC(=O)[C@H]([C@@H](C)O)NC(=O)c2csc(n2)-c2ccc(-c3nc(-c4nc(C(=O)NC5(C(=O)NCCCN6C(=O)CNC6=O)CC5)cs4)cs3)nc2-c2csc(n2)[C@H]([C@@H](C)O)NC(=O)c2csc(n2)[C@H](C(C)C)NC(=O)c2csc1n2 [AJ-039] . Reported MIC?
(A) 2

(Q) Entry under review: C/C=C1\NC(=O)[C@H]([C@@H](C)O)NC(=O)c2csc(n2)-c2ccc(-c3nc(-c4nc(C(=O)NC5(C(=O)NCCN6CCN(C[C@@H](O)CO)CC6)CC5)cs4)cs3)nc2-c2csc(n2)[C@H]([C@@H](C)O)NC(=O)c2csc(n2)[C@H](C(C)C)NC(=O)c2csc1n2 [AJ-206] . Reported MIC?
(A) 1

(Q) Entry under review: C/C=C1\NC(=O)[C@H]([C@@H](C)O)NC(=O)c2csc(n2)-c2ccc(-c3nc(-c4nc(C(=O)NC5(C(=O)NCCCN6CCOCC6)CC5)cs4)cs3)nc2-c2csc(n2)[C@H]([C@@H](C)O)NC(=O)c2csc(n2)[C@H](C(C)C)NC(=O)c2csc1n2 [AJ-037] . Reported MIC?
(A) 0.5

----------
- Test system: M. intracellulare
- assay.explanation: MIC by resazurin microtiter assay (REMA), M. intracellulare strains
- details: Mycobacterium intracellulare, M. intracellulare (SMC#8)
parameter.measured: MIC (µg/mL)
Field format: number, assumed µg/mL, no unit text.

(Q) Entry under review: C/C=C1\NC(=O)[C@H]([C@@H](C)O)NC(=O)c2csc(n2)-c2ccc(-c3nc(-c4nc(C(=O)NC5(C(=O)NCCN6CCN(C[C@@H](O)CO)CC6)CC5)cs4)cs3)nc2-c2csc(n2)[C@H]([C@@H](C)O)NC(=O)c2csc(n2)[C@H](C(C)C)NC(=O)c2csc1n2 . Reported MIC?
(A) 0.5

(Q) Entry under review: C/C=C1\NC(=O)[C@H]([C@@H](C)O)NC(=O)c2csc(n2)-c2ccc(-c3nc(-c4nc(C(=O)NC5(C(=O)NCCCN6CCOCC6)CC5)cs4)cs3)nc2-c2csc(n2)[C@H]([C@@H](C)O)NC(=O)c2csc(n2)[C@H](C(C)C)NC(=O)c2csc1n2 . Reported MIC?
(A) 0.25

(Q) Entry under review: CC[C@H]1OC(=O)[C@H](C)[C@@H](O[C@H]2C[C@@](C)(OC)[C@@H](O)[C@H](C)O2)[C@H](C)[C@@H](O[C@@H]2O[C@H](C)C[C@H](N(C)C)[C@H]2O)[C@](C)(OC)C[C@@H](C)C(=O)[C@H](C)[C@@H](O)[C@]1(C)O [CLR, clarithromycin, reference compound] . Reported MIC?
(A) 0.25

(Q) Entry under review: C/C=C(\NC(=O)c1csc(-c2csc(-c3ccc4c(n3)-c3csc(n3)[C@H]([C@@H](C)O)NC(=O)c3csc(n3)[C@H](C(C)C)NC(=O)c3csc(n3)/C(=C/C)NC(=O)[C@H]([C@@H](C)O)NC(=O)c3csc-4n3)n2)n1)C(=O)NCC(C)=O [MP2, micrococcin P2, reference compound] . Reported MIC?
(A) 0.125

----------
- assay.explanation: Aqueous kinetic solubility
- Format: physicochemical
- details: thermodynamic from solid; HCl salt in deionized water
Assignment: determine reported solubility for the given compounds.
Field format: number, assumed µg/mL, no unit text.

(Q) Entry under review: C/C=C1\NC(=O)[C@H]([C@@H](C)O)NC(=O)c2csc(n2)-c2ccc(-c3nc(-c4nc(C(=O)NC5(C(=O)NCCCN6C(=O)CNC6=O)CC5)cs4)cs3)nc2-c2csc(n2)[C@H]([C@@H](C)O)NC(=O)c2csc(n2)[C@H](C(C)C)NC(=O)c2csc1n2 . Reported solubility?
(A) 25.2

(Q) Entry under review: C/C=C1\NC(=O)[C@H]([C@@H](C)O)NC(=O)c2csc(n2)-c2ccc(-c3nc(-c4nc(C(=O)NC5(C(=O)NCCCN6CCOCC6)CC5)cs4)cs3)nc2-c2csc(n2)[C@H]([C@@H](C)O)NC(=O)c2csc(n2)[C@H](C(C)C)NC(=O)c2csc1n2 . Reported solubility?
(A) 5000

----------
- Tested on: M. intracellulare
- assay.explanation: MIC by resazurin microtiter assay (REMA), M. intracellulare strains
- details: Mycobacterium intracellulare, M. intracellulare (SMC#12)
Assignment: determine reported MIC for the given molecules.
Field format: number, assumed µg/mL, no unit text.

(Q) Which measured MIC belongs to CC[C@H]1OC(=O)[C@H](C)[C@@H](O[C@H]2C[C@@](C)(OC)[C@@H](O)[C@H](C)O2)[C@H](C)[C@@H](O[C@@H]2O[C@H](C)C[C@H](N(C)C)[C@H]2O)[C@](C)(OC)C[C@@H](C)C(=O)[C@H](C)[C@@H](O)[C@]1(C)O [CLR, clarithromycin, reference compound] , tested on M. intracellulare?
(A) 0.25

(Q) Which measured MIC belongs to C/C=C1\NC(=O)[C@H]([C@@H](C)O)NC(=O)c2csc(n2)-c2ccc(-c3nc(-c4nc(C(=O)NC5(C(=O)NCCN6CCN(C[C@@H](O)CO)CC6)CC5)cs4)cs3)nc2-c2csc(n2)[C@H]([C@@H](C)O)NC(=O)c2csc(n2)[C@H](C(C)C)NC(=O)c2csc1n2 , tested on M. intracellulare?
(A) 0.5

(Q) Which measured MIC belongs to C/C=C1\NC(=O)[C@H]([C@@H](C)O)NC(=O)c2csc(n2)-c2ccc(-c3nc(-c4nc(C(=O)NC5(C(=O)NCCCN6CCOCC6)CC5)cs4)cs3)nc2-c2csc(n2)[C@H]([C@@H](C)O)NC(=O)c2csc(n2)[C@H](C(C)C)NC(=O)c2csc1n2 , tested on M. intracellulare?
(A) 0.25

(Q) Which measured MIC belongs to C/C=C(\NC(=O)c1csc(-c2csc(-c3ccc4c(n3)-c3csc(n3)[C@H]([C@@H](C)O)NC(=O)c3csc(n3)[C@H](C(C)C)NC(=O)c3csc(n3)/C(=C/C)NC(=O)[C@H]([C@@H](C)O)NC(=O)c3csc-4n3)n2)n1)C(=O)NCC(C)=O [MP2, micrococcin P2, reference compound] , tested on M. intracellulare?
(A) 0.125

Values from paper PMC10580953
